- measurement_notes: protein stability index of a GFP-peptide fusion (GPS, HEK-293T) (PSI 1-6); higher = more stable;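 further: 24-mer peptide tiles fused after GFP, lentivirally expressed, FACS-sorted into six equal bins by GFP/DsRed ratio, decoded by Illumina sequencing, PSI is the read-weighted mean bin number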
- condition_set: treatment: MLN4924 1 uM, 8 h; c terminus: a fixed tail appended
Please assign a class to every record based on measured protein stability index, with ranges LOW = under 3, MID = from 3 up to 4, HIGH = 4 and over

Record excerpt, results attached:
# residue_codes, qualitative_label
records = [
    ("ILFLVIGGMLNFMMHDQRTGPAWN [SOAT2]", "MID"),
    ("DAGPMVVHCSAGVGRTGCFIVIDA [PTPRD]", "LOW"),
    ("QLVLAYDYSREVNTTEELEALITD [FEM1A]", "MID"),
]

Using the reported protein stability index, which band applies to IHGENIICEATQIIDYLEQTFLDE [GDAP1] ? MID

Now consider SSQKQHSFTSSDKTIKSFFPHSGK [C8orf76] . HIGH

Similarly, LAMGTVSLGQLPLPPIPHVFSAGT [PLAGL1] ? LOW

NAGLSHTEYQIVTDPGDVPAFLKW [SLC2A12] , same question. MID

Now the sequence QMAEKNRRDAETWFLSKTEELNKE [KRT16] HIGH

Now consider LMMCFILPTLVPWYFWGETFQNSV [SCD] and answer again. MID

Similarly, NCNWFCEGSFNGSEKETMQFLNDR [KRT33B] ? MID

How about this sequence: MEDSFLQSFGRLSLQPQQQQQRQR [N4BP2L1] HIGH

---

- measurement_notes: protein stability index of a GFP-peptide fusion (GPS, HEK-293T) (PSI 1-6); higher = more stable
- condition_set: treatment: MLN4924 1 uM, 8 h; c terminus: a fixed tail appended
Catalogue of protein stability index values
Just the number.

# residue_codes, protein stability index
data = [
    ("RGTGQLNRFVQLSGRPHLPGKKKI [KLHDC10]", 3.03),
]

Continue with the next sequence.
Would you mind telling me what protein stability index value was observed for ERILGPSHPDTSYYIRYRGAVYAD [FEM1A] ? 2.92

---

- measurement_notes: protein stability index of a GFP-peptide fusion (GPS, HEK-293T) (PSI 1-6); higher = more stable
- condition_set: treatment: DMSO; c terminus: a fixed tail appended
Record 1 whenever protein stability index is at 3 or higher; record 0 when lower.

# residue_codes, qualitative_label
records = [
    ("EKAHECTDCGKAFLKKSQLTEHKR [ZNF649]", 1),
    ("TRIFTEDRFAQDSEMKKCSDYESI [PPEF2]", 1),
    ("YRKKSAEFPDFYDSEEPVSTHQEA [CHGB]", 1),
    ("VEPGTPPLDILAQPLEASNPALEG [DNAAF3]", 1),
    ("AGGSARRPDTGDDAAGHGFCYCAG [GMCL1]", 1),
    ("RRLRDMVERPHSGLPGKVFACLSV [KCNG1]", 0),
]

Hi team, for VVVSVAGAFRKGKSFILDFMLRYL [ATL3] , is the recorded protein stability index at or above 3? 0

Continue with DDDDEEEEVSEVESFILDQDDLEN [ANKRD17] 1

Next entry: GTDEEEEEFIEEEDQEEEESTEGK [TRIM63] 1

Thanks! And LASQALTPPPGPASAQPLPAPEAA [TFE3] ? 1

Consider next the sequence KVHIGYLPNKQVLGLSKLARIVEI [GCH1] in the same way. 0

Would you kindly repeat that for WCLVQICEKYLPGYYSEKLEAIQL [TBC1D10A] ? 0

Same again, this time with RDANGWTLLHFSAARGKERCVRVF [ASB7] 0

---

- measurement_notes: protein stability index of a GFP-peptide fusion (GPS, HEK-293T) (PSI 1-6); higher = more stable
- condition_set: treatment: MLN4924 1 uM, 8 h; c terminus: a fixed tail appended
Lab note: compare protein stability index against 4. Equal or greater, write 1.0. Smaller, write 0.0.

Answered cases to consult:
# residue_codes, qualitative_label
measured = [
    ("EPSFAQFSQEIGLASLGASEEAVQ [TPH1]", 1.0),
    ("GTDEEEEEFIEEEDQEEEESTEGK [TRIM63]", 1.0),
]

Next sequence, please.
Is the recorded value of protein stability index equal to or greater than 4 for this sequence? AQRSAHCSRPSGSSSSSGVLMVGP [CSNK1G1] 0.0

---

- measurement_notes: protein stability index of a GFP-peptide fusion (GPS, HEK-293T) (PSI 1-6); higher = more stable
- condition_set: treatment: MLN4924 1 uM, 8 h; c terminus: a fixed tail appended
Listing: protein stability index of selected sequences
Respond numerically, and do not add a unit to the figure.

# annotated cases, reported protein stability index shown
# residue_codes, property_name, test_value
rows = [
    ("MPSPTDVVLPGAVSLRYSGATAAS [ADAMTS4]", "protein stability index", 4.25),
    ("LCARLAAGPGAAEPLPVERDPAAG [ZNF511]", "protein stability index", 4.6),
    ("TVRGLHCMCTVGERLYVIGGNHFR [KLHL13]", "protein stability index", 2.18),
    ("MGCTLSAEDKAAVERSKMIDRNLR [GNAI1]", "protein stability index", 4.54),
    ("SNHSWNTQTWCTQSWNNQAWNSPF [NANOGP8]", "protein stability index", 2.19),
    ("RPSSILPPRRGVSGDRDENSFSLN [MAP2]", "protein stability index", 4.63),
    ("AANVVSAKRNRLAPAHVDEQVFLY [ZBED1]", "protein stability index", 2.47),
    ("KNHVGKPLLKMDLNSEQAEQLERI [FAM98B]", "protein stability index", 4.67),
]

Give its protein stability index value. Item: GGFDGSRRHTSMERYDPNIDQWSM [KLHL12] 3.89

Entry VFIFYYVVEEILELHIHRLRYLSS [PKD2L1] please 3.07

AYDWVGRPIPTPVGSVHVDSGASA [CSNK1G1] ? 4.08

Repeat with VVNKYQINGLQAWLLTHLLWFANA [DHCR7] 2.75

// same read-out, input: EGEPATQRQDPAAAQEGEDEGASA [GAGE1] 5.56

Would you kindly repeat that for PPPPPLPDPTPPEPEEEILGSDDE [SRPK2] ? 5.63

One more sequence: LSSEMNTSTVNSAREELMESRMRI [LMNB1] 4.27

Also need LMISENNFLFRNAASTLTERPCYN [ANKRD40] , thanks. 2.36

---

- measurement_notes: protein stability index of a GFP-peptide fusion (GPS, HEK-293T) (PSI 1-6); higher = more stable
- condition_set: treatment: MLN4924 1 uM, 8 h; c terminus: a fixed tail appended
property_name: protein stability index
Just the number.

# residue_codes, protein stability index
data = [
    ("FHTMDELVEHYKKAPIFTSEHGEK [NCK2]", 3.97),
    ("ELKKLKNLEGNELQRHADEFLLDL [FUT8]", 3.59),
    ("ILFLNKKDLFEEKIKKSPLTICYP [GNAI1]", 2.21),
    ("EITTQFLIYASYFALIAVVFLASG [SLC19A2]", 3.33),
    ("FQKTKNLLTGETEADPEMIKRAED [CLPTM1]", 5.31),
]

Fill in: protein stability index of RTAMPYGGYEKASKRMTFQMPKFD [MYOZ1] is ___ 2.86

What do you get for RALATSNARAQQRAAAQQRRSFLN [GNAS] ? 4.3

What about this sequence? TRQKKNLPDSPLRFDGLPAVLGFP [TRIM15] 2.92

---

- measurement_notes: protein stability index of a GFP-peptide fusion (GPS, HEK-293T) (PSI 1-6); higher = more stable
- condition_set: treatment: DMSO; c terminus: a fixed tail appended
Quick list: protein stability index per entry.
Just the number, please.

# residue_codes, protein stability index
records = [
    ("CTNTYVTGLSMIANGGAICAVTFF [OR4A15]", 3.25),
    ("YTGMFTSSPDLDDMKLIILANRLC [RHOBTB2]", 2.73),
    ("ARNNNDPGRLTEALCLEVRPTYFE [RNF180]", 4.97),
    ("TSVFQKKLCTAHMCSTLEHNCAHF [MATN2]", 2.47),
    ("MVRFKHRYLLCELVSDDPRCRLSL [POP5]", 2.56),
    ("SVILSVKFSPFGQWWASVGMDDFL [TLE6]", 3.22),
    ("VKAATTEPTEVEEVVPALEPTETL [BCL2L13]", 5.65),
    ("PAGTPPPTARHFQEHPRQQLATSS [MOSPD3]", 4.74),
]

Value lookup for protein stability index; key = HVAGEQMLEDGPHNANRGQRLLAF [CCDC70] 4.07

Also need EIPENYNSAMPFKILYDDGKMVEE [PTPRD] , thanks. 4.55

Now give it for SMSTRRLGVAVAVLGGFLYAVGGS [KLHL20] too. 2.29

Try this sequence too: MVLAPVFGYLGDRYNRKYLMCGGI [SPNS1] 2.61

Then this sequence: AKLALFYDWLFFSPDKDSIMNIEP [INTS3] 2.04

Could you do the same for KLMKILQPQDVDLALDSGASLLHL [RIPK4] , please? 2.11

Consider next the sequence WEQPWASEVFGPERMPPSGAARSF [PXN] in the same way. 3.73
